src = PubChem BioAssay AID2060901

Give measured viability, T/C for each item. Keep answers brief.
System: 422866-222-R5-J1-PDC complex spheroids viability
Protocol: Anticancer human tumor 422866-222-R5-J1-PDC patient-derived pancreatic adenocarcinoma cell line growth inhibition [RAS]
Applied conditions: second compound 1 µM; first compound 3.16 µM; stronger effect = lower value
Answers are plain numbers, in %.

>>> test_result("CC(C)NCC(C(=O)N1CCN(c2ncnc3c2C(C)CC3O)CC1)c1ccc(Cl)cc1 (centres undefined) + C#Cc1c(F)ccc2cc(O)cc(-c3ncc4c(N5CC6CCC(C5)N6)nc(OCC56CCCN5CC(F)C6)nc4c3F)c12")
66.5
>>> test_result("CC(=O)OC12COC1CC(O)C1(C)C(=O)C(O)C3=C(C)C(OC(=O)C(O)C(NC(=O)OC(C)(C)C)c4ccccc4)CC(O)(C(OC(=O)c4ccccc4)C21)C3(C)C (centres undefined) + C#Cc1c(F)ccc2cc(O)cc(-c3ncc4c(N5CC6CCC(C5)N6)nc(OCC56CCCN5CC(F)C6)nc4c3F)c12")
41
>>> test_result("CC(=O)OC12COC1CC(O)C1(C)C(=O)C(O)C3=C(C)C(OC(=O)C(O)C(NC(=O)OC(C)(C)C)c4ccccc4)CC(O)(C(OC(=O)c4ccccc4)C21)C3(C)C (centres undefined) + C=CC(=O)N1CCN(c2nc(OCC3CCCN3C)nc3c(F)c(-c4nc(N)cc(C)c4C(F)(F)F)c(Cl)cc23)C(C)C1")
22.3

Now look at this entry.
Prompt: Notebook entry, 422866-222-R5-J1-PDC complex spheroids viability assay: viability, T/C of CC1(O)CCCC1n1c(=O)c(C(F)F)cc2cnc(NC3CCN(S(C)(=O)=O)CC3)nc21 (centres undefined) + C#Cc1c(F)ccc2cc(O)cc(-c3ncc4c(N5CC6CCC(C5)N6)nc(OCC56CCCN5CC(F)C6)nc4c3F)c12 = ?
Completion: 70.4

###

Hi there, I'd appreciate the recorded viability, T/C for every entry that follows.
System: 422866-222-R5-J1-PDC complex spheroids viability
Protocol: Anticancer human tumor 422866-222-R5-J1-PDC cell line growth inhibition [RAS];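 note: spheroids exposed to compounds for 7 days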;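 for viability, T/C: 100% = DMSO vehicle control viability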
Applied conditions: second compound 0.3 µM; first compound 0.1 µM; stronger effect = lower value
Give bare numbers, in %.

Please give viability, T/C for each item listed below.
1. CC(C)NCC(C(=O)N1CCN(c2ncnc3c2C(C)CC3O)CC1)c1ccc(Cl)cc1 (configuration not stated) + CCn1c(-c2cccnc2C(C)OC)c2c3cc(ccc31)N1CCOC(CC(NC(=O)C(C(C)C)N(C)C(=O)C3(F)CCN(C(=O)C#CC(C)(C)N(C)C)CC3)C(=O)N3CCCC(N3)C(=O)OCC(C)(C)C2)C1
2. NC1c2ccccc2OC12CCN(c1cnc3c(N4CCCc5ncccc54)n[nH]c3n1)CC2 (configuration not stated) + CCn1c(-c2cccnc2C(C)OC)c2c3cc(ccc31)N1CCOC(CC(NC(=O)C(C(C)C)N(C)C(=O)C3(F)CCN(C(=O)C#CC(C)(C)N(C)C)CC3)C(=O)N3CCCC(N3)C(=O)OCC(C)(C)C2)C1
3. C=CC(=O)N1CCN(c2nc(OCC3CCCN3C)nc3c(F)c(-c4nc(N)cc(C)c4C(F)(F)F)c(Cl)cc23)C(C)C1 (configuration not stated) + CCn1c(-c2cccnc2C(C)OC)c2c3cc(ccc31)N1CCOC(CC(NC(=O)C(C(C)C)N(C)C(=O)C3(F)CCN(C(=O)C#CC(C)(C)N(C)C)CC3)C(=O)N3CCCC(N3)C(=O)OCC(C)(C)C2)C1
4. Cc1nc(N2CCC3(CC2)COC(C)C3N)c(CO)nc1Sc1ccnc(N)c1Cl (configuration not stated) + CCn1c(-c2cc(N3CCN(C)CC3)cnc2C(C)OC)c2c3cc(ccc31)-c1csc(n1)CC(NC(=O)C1CC1C)C(=O)N1CCCC(N1)C(=O)OCC(C)(C)C2
5. Nc1ccn(C2OC(CO)C(O)C2(F)F)c(=O)n1 (configuration not stated) + CCn1c(-c2cc(N3CCN(C)CC3)cnc2C(C)OC)c2c3cc(ccc31)-c1csc(n1)CC(NC(=O)C1CC1C)C(=O)N1CCCC(N1)C(=O)OCC(C)(C)C2
6. C[C@@H](NC(=O)c1ncnc(N)c1Cl)c1ncc(C(=O)Nc2cc(C(F)(F)F)c(Cl)cn2)s1 + CCn1c(-c2cccnc2C(C)OC)c2c3cc(ccc31)N1CCOC(CC(NC(=O)C(C(C)C)N(C)C(=O)C3(F)CCN(C(=O)C#CC(C)(C)N(C)C)CC3)C(=O)N3CCCC(N3)C(=O)OCC(C)(C)C2)C1
7. CC(=O)OC12COC1CC(O)C1(C)C(=O)C(O)C3=C(C)C(OC(=O)C(O)C(NC(=O)OC(C)(C)C)c4ccccc4)CC(O)(C(OC(=O)c4ccccc4)C21)C3(C)C (configuration not stated) + CCn1c(-c2cc(N3CCN(C)CC3)cnc2C(C)OC)c2c3cc(ccc31)-c1csc(n1)CC(NC(=O)C1CC1C)C(=O)N1CCCC(N1)C(=O)OCC(C)(C)C2

Completion:
[13.4, 13.4, 19.6, 20.2, 18.7, 17.8, 17.1]

###

Please provide measured pIC50 for the entries that follow.
Test system: 422866-222-R5-J1-PDC complex spheroids viability
Protocol: Anticancer human tumor 422866-222-R5-J1-PDC cell line growth inhibition [RAS];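 note: spheroids exposed to compounds for 7 days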
Applied conditions: curve of first compound; second compound 0.316 µM
pIC50: −log10 of the molar value.

Answered examples (3):
>>> test_result("Nc1ccn(C2OC(CO)C(O)C2(F)F)c(=O)n1 (centres undefined) + C#Cc1c(F)ccc2cc(O)cc(-c3ncc4c(N5CC6CCC(C5)N6)nc(OCC56CCCN5CC(F)C6)nc4c3F)c12")
7.80
>>> test_result("CC(=O)OC12COC1CC(O)C1(C)C(=O)C(O)C3=C(C)C(OC(=O)C(O)C(NC(=O)OC(C)(C)C)c4ccccc4)CC(O)(C(OC(=O)c4ccccc4)C21)C3(C)C (centres undefined) + C=CC(=O)N1CCN(c2nc(OCC3CCCN3C)nc3c(F)c(-c4nc(N)cc(C)c4C(F)(F)F)c(Cl)cc23)C(C)C1")
"> 7.50"
>>> test_result("Nc1ccn(C2OC(CO)C(O)C2(F)F)c(=O)n1 (centres undefined) + C=CC(=O)N1CCN(c2nc(OCC3CCCN3C)nc3c(F)c(-c4nc(N)cc(C)c4C(F)(F)F)c(Cl)cc23)C(C)C1")
"> 8.50"

Prompt: Name the recorded pIC50 for CC(C)NCC(C(=O)N1CCN(c2ncnc3c2C(C)CC3O)CC1)c1ccc(Cl)cc1 (centres undefined) + C=CC(=O)N1CCN(c2nc(OCC3CCCN3C)nc3c(F)c(-c4nc(N)cc(C)c4C(F)(F)F)c(Cl)cc23)C(C)C1 .
Completion: > 7.50

###

System: 422866-222-R5-J1-PDC complex spheroids viability
Protocol: Anticancer human tumor 422866-222-R5-J1-PDC cell line growth inhibition [RAS];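 note: spheroids exposed to compounds for 7 days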;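 for viability, T/C: 100% = DMSO vehicle control viability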
Applied conditions: second compound 0.316 µM; first compound 0.0316 µM; stronger effect = lower value
viability, T/C strictly under 50% means 1; at 50% or over means -1.

Study these solved cases before continuing.
>>> classification("CCN1CCN(Cc2ccc(Nc3ncc(F)c(-c4cc(F)c5nc(C)n(C(C)C)c5c4)n3)nc2)CC1 + C=CC(=O)N1CCN(c2nc(OCC3CCCN3C)nc3c(F)c(-c4nc(N)cc(C)c4C(F)(F)F)c(Cl)cc23)C(C)C1")
1
>>> classification("CCN1CCN(Cc2ccc(Nc3ncc(F)c(-c4cc(F)c5nc(C)n(C(C)C)c5c4)n3)nc2)CC1 + C#Cc1c(F)ccc2cc(O)cc(-c3ncc4c(N5CC6CCC(C5)N6)nc(OCC56CCCN5CC(F)C6)nc4c3F)c12")
-1
>>> classification("C[C@@H](NC(=O)c1ncnc(N)c1Cl)c1ncc(C(=O)Nc2cc(C(F)(F)F)c(Cl)cn2)s1 + C=CC(=O)N1CCN(c2nc(OCC3CCCN3C)nc3c(F)c(-c4nc(N)cc(C)c4C(F)(F)F)c(Cl)cc23)C(C)C1")
1
>>> classification("CC1(O)CCCC1n1c(=O)c(C(F)F)cc2cnc(NC3CCN(S(C)(=O)=O)CC3)nc21 (configuration not stated) + C#Cc1c(F)ccc2cc(O)cc(-c3ncc4c(N5CC6CCC(C5)N6)nc(OCC56CCCN5CC(F)C6)nc4c3F)c12")
-1
>>> classification("CC(C)NCC(C(=O)N1CCN(c2ncnc3c2C(C)CC3O)CC1)c1ccc(Cl)cc1 (configuration not stated) + C=CC(=O)N1CCN(c2nc(OCC3CCCN3C)nc3c(F)c(-c4nc(N)cc(C)c4C(F)(F)F)c(Cl)cc23)C(C)C1")
1

Consider now this further compound.
Prompt: Item CC(C)n1nc(-c2ccc3oc(N)nc3c2)c2c(N)ncnc21 + C#Cc1c(F)ccc2cc(O)cc(-c3ncc4c(N5CC6CCC(C5)N6)nc(OCC56CCCN5CC(F)C6)nc4c3F)c12 : viability, T/C beneath 50%, strictly?
Completion: -1
